Data provenance is ChEMBL document CHEMBL1961873.

Known inhibition of a selection of compounds
# Assay System: Protein kinase C eta type (Homo sapiens) (UniProt P24723);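 also: value is the mean inhibition, from GSK PKIS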
# Sequence (P24723 whole entry): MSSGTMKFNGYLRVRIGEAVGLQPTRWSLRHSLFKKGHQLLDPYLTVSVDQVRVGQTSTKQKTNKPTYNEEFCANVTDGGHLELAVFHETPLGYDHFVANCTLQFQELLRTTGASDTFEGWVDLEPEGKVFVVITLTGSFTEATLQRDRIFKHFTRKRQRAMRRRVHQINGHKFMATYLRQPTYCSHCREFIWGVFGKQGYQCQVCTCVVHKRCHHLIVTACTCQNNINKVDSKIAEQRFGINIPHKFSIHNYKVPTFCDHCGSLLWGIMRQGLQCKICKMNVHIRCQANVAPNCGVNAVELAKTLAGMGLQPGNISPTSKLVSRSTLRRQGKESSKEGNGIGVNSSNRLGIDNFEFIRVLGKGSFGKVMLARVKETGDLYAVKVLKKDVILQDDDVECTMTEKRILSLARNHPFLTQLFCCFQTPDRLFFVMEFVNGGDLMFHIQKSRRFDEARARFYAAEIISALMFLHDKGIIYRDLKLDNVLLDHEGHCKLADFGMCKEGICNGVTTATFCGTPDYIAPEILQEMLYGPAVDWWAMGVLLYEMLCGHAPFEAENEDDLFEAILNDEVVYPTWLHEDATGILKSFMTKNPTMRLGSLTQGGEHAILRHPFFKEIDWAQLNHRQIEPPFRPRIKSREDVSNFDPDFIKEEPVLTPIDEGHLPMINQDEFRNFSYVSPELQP
# Recorded Conditions: at 1 µM
Answer by giving the amount and then stating its unit.

[
  {
    "Compound Structure String": "NCc1ccc(-n2c(-c3nonc3N)nc3cnccc32)cc1",
    "inhibition": "88.4%"
  },
  {
    "Compound Structure String": "COC(=O)Nc1nc2ccc(Sc3ccc(NC(=O)Nc4cc(C(F)(F)F)ccc4F)cc3)cc2[nH]1",
    "inhibition": "0.54%"
  },
  {
    "Compound Structure String": "Clc1ccc(CNc2nccc(-c3cnn4ncccc34)n2)cc1",
    "inhibition": "7.54%"
  },
  {
    "Compound Structure String": "C[C@@H](Oc1cc(-n2cnc3ccc(OCC4CCN(C)CC4)cc32)sc1C(N)=O)c1ccccc1Cl",
    "inhibition": "5.34%"
  }
]

Problem: Give Protein kinase C eta type (Homo sapiens) (UniProt P24723) inhibition for COc1cccc(-n2cnc3c(N/N=C/c4ccncc4)ncnc32)c1
Solution: 0.69%

Problem: Give Protein kinase C eta type (Homo sapiens) (UniProt P24723) inhibition for CN(c1ccc(NC(=O)Nc2c(Cl)cccc2Cl)cc1)c1ccnc(Nc2cccc(CS(C)(=O)=O)c2)n1
Solution: 3.8%

Problem: Give Protein kinase C eta type (Homo sapiens) (UniProt P24723) inhibition for CN(C)CCOc1ccc(-c2cc(-c3ccc4c(c3)CCC4=NO)c(-c3ccncc3)o2)cc1
Solution: -1.11%

Problem: Give Protein kinase C eta type (Homo sapiens) (UniProt P24723) inhibition for Fc1ccc(-c2c(-c3ccncc3)nc3n2CCS3)cc1
Solution: 7.59%

Problem: Give Protein kinase C eta type (Homo sapiens) (UniProt P24723) inhibition for NS(=O)(=O)c1ccc(Nc2cc(-c3ccc(O)c(F)c3)n[nH]2)cc1
Solution: -5.2%

Problem: Give Protein kinase C eta type (Homo sapiens) (UniProt P24723) inhibition for O=C1NC(=O)C(c2cccc(Cl)c2)=C1Nc1ccc(Cl)c(C(=O)O)c1
Solution: 8.96%
